Tested on: OVCAR-3
Assay: NCI-60 SRB screening (one-dose and five-dose)
Assay type: cell-based, human
Conditions: OVCAR-3, 10 μM, 48 h
Lab note: anything with Growth Percent at or over 50% counts as 1.0; the rest go in 0.0.

Task item: Reported Growth Percent reaches at least 50% for `COC(=O)[C@]12CC[C@@H](C(=O)/C=C/c3cccnc3)[C@@H]1[C@H]1CC[C@@H]3[C@@]4(C)C/C(=C\c5cccnc5)C(=O)C(C)(C)[C@@H]4CC[C@@]3(C)[C@]1(C)CC2` ?
Reply: 0.0

Task item: Also check `C[C@H]1[C@@H]2[C@H]3CC[C@@H]4[C@@]5(C)C/C(=C\c6cccnc6)C(=O)C(C)(C)[C@@H]5CC[C@@]4(C)[C@]3(C)CC[C@]23CO[C@@]1(C)[C@@H](C(=O)/C=C/c1cccnc1)C3`
Reply: 0.0

Task item: Also check `CC(=O)[C@H]1C[C@]23CC[C@]4(C)[C@H](CC[C@@H]5[C@@]6(C)CCC(=O)C(C)(C)[C@@H]6CC[C@]54C)[C@H]2[C@H](C)[C@@]1(C)OC3`
Reply: 1.0

Task item: Also check `C[C@H]1[C@@H]2[C@H]3CC[C@@H]4[C@@]5(C)CC[C@H](O)C(C)(C)[C@@H]5CC[C@@]4(C)[C@]3(C)CC[C@]23CO[C@@]1(C)[C@@H](C(=O)/C=C/c1ccco1)C3`
Reply: 1.0

Task item: Also check C[C@H]1[C@@H]2[C@H]3CC[C@@H]4[C@@]5(C)CC[C@H](O)C(C)(C)[C@@H]5CC[C@@]4(C)[C@]3(C)CC[C@]23CO[C@@]1(C)C(C(=O)/C=C/c1cccnc1)C3 (stereo partly shown)
Reply: 0.0

Task item: Also check CC(=O)O[C@H]1CC[C@]2(C)[C@H]3CC[C@@H]4[C@H]5[C@H](C)[C@@]6(C)OC[C@]5(CC[C@@]4(C)[C@]3(C)CC[C@H]2C1(C)C)CC6C(C)=O (stereo partly shown)
Reply: 1.0

----------
Tested on: HOP-62
Assay: NCI-60 SRB screening (one-dose and five-dose)
Format: cell-based, human
Conditions: HOP-62, 10 μM, 48 h
Give measured Growth Percent for each item. Keep answers brief.
Please respond with the number in % and leave the unit unwritten.

Task item: Look at this compound and give its reported Growth Percent. C[C@H]1[C@@H]2[C@H]3CC[C@@H]4[C@@]5(C)C/C(=C\c6cccnc6)C(=O)C(C)(C)[C@@H]5CC[C@@]4(C)[C@]3(C)CC[C@]23CO[C@@]1(C)[C@@H](C(=O)/C=C/c1cccnc1)C3 [Compound 6]
Reply: −13.55

Task item: Also check CC(=O)[C@H]1C[C@]23CC[C@]4(C)[C@H](CC[C@@H]5[C@@]6(C)CCC(=O)C(C)(C)[C@@H]6CC[C@]54C)[C@H]2[C@H](C)[C@@]1(C)OC3 [Compound 2]
Reply: 80.72

Task item: Also check C[C@H]1[C@@H]2[C@H]3CC[C@@H]4[C@@]5(C)CC[C@H](O)C(C)(C)[C@@H]5CC[C@@]4(C)[C@]3(C)CC[C@]23CO[C@@]1(C)C(C(=O)/C=C/c1cccnc1)C3 (stereo partly shown) [Compound 4]
Reply: 81.73

Task item: Also check CC(=O)O[C@H]1CC[C@]2(C)[C@H]3CC[C@@H]4[C@H]5[C@H](C)[C@@]6(C)OC[C@]5(CC[C@@]4(C)[C@]3(C)CC[C@H]2C1(C)C)CC6C(C)=O (stereo partly shown) [Compound 1]
Reply: 100.79
